Experiment: High-throughput drug toxicity screening in the BPDCN cell line Cal-1 (AID 1224825);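 note: cells exposed to compounds for 48 h; 100% = DMSO and 0% = bortezomib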
Conditions: Cal-1 BPDCN cell viability, qHTS; at 45.8 µM (top of the series) unless noted
measurement-kind: viability (% of control)

Example entries begin here.
CC(=O)ON=C1C(c2c(O)[nH]c3cc(Br)ccc23)=Nc2ccccc21	17.5%
O=C(c1ccc(F)cc1)N1CCC[C@H](c2nc(-c3ccc(F)cc3)no2)C1	111%
CCC(C=C[C@@H]1OC(=O)C=C[C@H]1C)=C[C@H](C)CC=CC(C)=C[C@@H](C)C(=O)[C@@H](C)[C@H](O)[C@@H](C)CC(C)=CC(=O)O	5.92% [at 1.72 µM]

Now consider the entry below.
Q: Which measured viability (% of control) value corresponds to COC(=O)[C@@H]1CC2=CC(=O)CC[C@]2(C)[C@@]23O[C@@H]2C[C@@]2(C)[C@H](CC[C@@]24CCC(=O)O4)[C@@H]13 ?
A: 108%
